Each entry below carries its reported cell viability.
# Tested on: Calu-3
# TEST: cell viability relative to DMSO; higher = less toxic
# CONDITION LABEL: 72 h; 10000 nM
Phrase the answer as number then unit, nothing more needed.

Known cell viability results, listed for orientation:
C[C@H](NC(=O)C(C)(C)Oc1ccc(C(F)(F)F)cn1)[C@@H](Cc1ccc(Cl)cc1)c1cccc(C#N)c1 [taranabant] : 86.6%
CCNC(=O)[C@H]1O[C@@H](n2cnc3c(N)ncnc32)[C@H](O)[C@@H]1O [NECA] : 92.8%

We next turn to a different compound, shown below.
Record c1ccc2sc(N3CCN(Cc4ccc5c(c4)OCO5)CC3)nc2c1 [2-[1-(4-piperonyl)piperazinyl]benzothiazole] ; system Calu-3; cell viability = 90.5%

* * *

Each entry below carries its reported cell viability.
# System: U2OS
# TEST: cell viability relative to DMSO; higher = less toxic
# CONDITION LABEL: 72 h; 10000 nM
Write it as a number; the unit % goes unstated.

Known cell viability results, listed for orientation:
CCCc1c(OCC(O)COc2ccc3c(=O)cc(C(=O)O)oc3c2CCC)ccc(C(C)=O)c1O (stereo unspecified) : 98.9
CCN1CCN(Cc2ccc(-c3cc4c(N[C@H](C)c5ccccc5)ncnc4[nH]3)cc2)CC1 : 44.7
CC(=O)NCCCCCC(=O)O : 100

We next turn to a different molecule, shown below.
Entry CCOc1ccc(-c2nc(-c3cccc4c3CCC4NCCO)no2)cc1OCC (stereo unspecified) ; cell viability = 90.5

* * *

# Tested on: Caco-2
# TEST: cell viability relative to DMSO; higher = less toxic
# CONDITION LABEL: 72 h; 10000 nM
Each entry below carries its reported cell viability.
Write it as a number; the unit % goes unstated.

Known cell viability results, listed for orientation:
COc1ccc2[nH]c([S+]([O-])Cc3ncc(C)c(OC)c3C)nc2c1 (configuration not stated) [omeprazole-magnesium] : 107
COc1ccc2[nH]c([S+]([O-])Cc3ncc(C)c(OC)c3C)nc2c1 (configuration not stated) [omeprazole] : 95
Nc1ccc(-c2nc3ccc(-c4nc5ccc(N)cc5[nH]4)cc3[nH]2)cc1 : 99.7

Entry `CC[C@H](C)[C@@H]1NC(=O)[C@H](Cc2ccc(OC)cc2)NC(=O)CCCSC[C@@H](C(=O)N2CCC[C@H]2C(=O)N[C@@H](CC(C)C)C(=O)NCC(N)=O)NC(=O)[C@H](CC(N)=O)NC(=O)[C@H](CCC(N)=O)NC1=O` ; cell viability = 87.4

Entry NC(=O)c1ccc[n+]([C@@H]2O[C@H](COP(=O)([O-])OP(=O)(O)OC[C@H]3O[C@@H](n4cnc5c(N)ncnc54)[C@H](O)[C@@H]3O)[C@@H](O)[C@H]2O)c1 [nadide] ; cell viability = 113

Entry `Cc1cc(OCCN2CCOCC2)nn1-c1ccc2ccccc2c1` ; cell viability = 92

Entry `Clc1ccc(N/N=C(\c2ccccc2)c2ccccn2)nc1` ; cell viability = 34.7

Entry `CS(=O)(=O)Nc1ccc(Cc2noc(-c3ccc4[nH]cc(CCN)c4c3)n2)cc1` ; cell viability = 104

Entry O=C(NC(=O)c1c(F)cccc1F)Nc1cc(Cl)c(OC(F)(F)C(F)C(F)(F)F)cc1Cl (configuration not stated) ; cell viability = 95

* * *

# Tested on: HepG2
# TEST: cell viability relative to DMSO; higher = less toxic
# CONDITION LABEL: 72 h; 10000 nM
Exam item: assign satisfied to entries whose cell viability is below 90% and not satisfied to entries at or above 90%. Note that a value of exactly 90% receives not satisfied.

COc1ccc(S(=O)(=O)Nc2nc(-c3cccc([N+](=O)[O-])c3)cs2)cc1OC : not satisfied

Report whether reported cell viability is lower than 90% (strictly) for CC(C)(C)c1ccc(C(O)CCCN2CCC(C(O)(c3ccccc3)c3ccccc3)CC2)cc1 (configuration not stated) not satisfied

Report whether reported cell viability is lower than 90% (strictly) for `CCCCCCCCN=c1ccn(CCCCCCCCCCn2ccc(=NCCCCCCCC)cc2)cc1` satisfied

Report whether reported cell viability is lower than 90% (strictly) for `CCCCc1ccc(NS(=O)(=O)c2ccc(F)cc2)cc1` satisfied

Report whether reported cell viability is lower than 90% (strictly) for `CCCCCCCCOc1ccccc1C(=O)Nc1ccc(C(=O)OCC[N+](C)(CC)CC)cc1` satisfied

Report whether reported cell viability is lower than 90% (strictly) for `CCNC(=O)[C@H]1O[C@@H](n2cnc3c(N)ncnc32)[C@H](O)[C@@H]1O` not satisfied

Report whether reported cell viability is lower than 90% (strictly) for `NC(=O)c1cnc2[nH]ccc2c1N[C@@H]1[C@@H]2CC3C[C@H]1C[C@@](O)(C3)C2` satisfied

* * *

Each entry below carries its reported cell viability.
# Tested on: HepG2
# TEST: cell viability relative to DMSO; higher = less toxic
# CONDITION LABEL: 72 h; 1000 nM
Phrase the answer as number then unit, nothing more needed.

COc1cc(Br)c(S(=O)(=O)Nc2ccc(C(F)(F)F)c(O[C@@H]3CCN(C)C3)c2)cc1OC : 96.7%
O=C(C1CCCCC1)N1CC(=O)N2CCc3ccccc3C2C1 (stereo not given) : 94.3%

Record `C[C@@H]1CCCN1CCc1cc2cc(-c3ccc(C#N)cc3)ccc2o1` ; system HepG2; cell viability = 90.9%

Record `Clc1cccc(/C=N/N=C/c2cccc(Cl)c2)c1` ; system HepG2; cell viability = 100%

Record `CCS(=O)(=O)N1CCC([C@@H](C)n2c(C)c(C(=O)NCc3c(OC)cc(C)[nH]c3=O)c3ccccc32)CC1` ; system HepG2; cell viability = 94.3%

Record CN1CC[C@@]2(C)c3cc(O)ccc3N(C)[C@@H]12 [eseroline-(-)] ; system HepG2; cell viability = 109%

Record `C[C@@H](O)[C@H]1C(=O)N2C(C(=O)O)=C(SCCNC=N)C[C@H]12` ; system HepG2; cell viability = 100%

Record `O=C(CCCCCCNC(=O)c1cnc(N(c2ccccc2)c2ccccc2)nc1)NO` ; system HepG2; cell viability = 86%

Record `NCCNCCNCCN` ; system HepG2; cell viability = 98%

Record CC(N)Cc1c[nH]c2ccc(OCc3cccs3)cc12 (stereo not given) ; system HepG2; cell viability = 95.5%

* * *

Each entry below carries its reported relative viability EC50.
# Test system: Calu-3
# TEST: relative viability EC50 (midpoint between 100% and the lowest measured viability); higher = less toxic
# CONDITION LABEL: 72 h

Known relative viability EC50 results, listed for orientation:
NCCNCCNCCN [trientine] : > 10 µM
O[C@@H](COc1cccc2ncccc12)CN1CCN([C@@H]2c3ccccc3[C@@H]3[C@H](c4ccccc42)C3(F)F)CC1 [zosuquidar] : > 10 µM

Record CC(C(=O)O)c1ccc2c(c1)Cc1cccnc1O2 (stereo not drawn) [pranoprofen] ; system Calu-3; relative viability EC50 = > 10 µM

* * *

# System: Caco-2
# TEST: drug sensitivity score (DSS) for viability; higher = more toxic; extreme values may be limits of the assay
# CONDITION LABEL: 72 h
ENDPOINT: drug sensitivity score
# print the numeric value only

Known drug sensitivity score results, listed for orientation:
CCCCN(CCCC)CC(O)c1cc(Cl)cc2c1-c1ccc(Cl)cc1/C2=C/c1ccc(Cl)cc1 (stereo not given) : 0
CC(=O)NCCc1c[nH]c2ccccc12 : 0

We next turn to a different compound, shown below.
Entry `Cc1cccc(-c2[nH]c(C(C)(C)C)nc2-c2ccc3nccnc3c2)n1` ; drug sensitivity score = 5.4

* * *

# System: HepG2
# TEST: cell viability relative to DMSO; higher = less toxic
# CONDITION LABEL: 72 h; 10000 nM
ENDPOINT: cell viability (%)
Write it as a number; the unit % goes unstated.

O=C1C(=Cc2cccnc2)C(=O)c2ccccc21 : 87.6
COc1cc(Br)c(S(=O)(=O)Nc2ccc(C(F)(F)F)c(O[C@@H]3CCN(C)C3)c2)cc1OC : 91.2

We next turn to a different compound, shown below.
Entry `Cc1ncc[nH]1` ; cell viability = 91.5

* * *

# System: Vero E6
# TEST: cell viability relative to DMSO; higher = less toxic
# CONDITION LABEL: 72 h; 1 nM
ENDPOINT: cell viability (%)
Write it as a number; the unit % goes unstated.

CC(C)(C)C(=O)NCCCC(=O)O : 95.1
OCCN1CCN(CCCN2c3ccccc3Sc3ccc(Cl)cc32)CC1 : 107
NC(=O)c1ccccc1O [salicylamide] : 98
O=C(CCCCCCNC(=O)c1cnc(N(c2ccccc2)c2ccccc2)nc1)NO : 92.9
Cc1cc(-c2ccc(CC(=O)Nc3ccc(-c4cccnc4)cc3)cc2)ccn1 : 97.1
OCC(CO)N[C@H]1C[C@](O)(CO)[C@@H](O)[C@H](O)[C@H]1O : 97

Entry `CCCCCCCCOc1ccccc1C(=O)Nc1ccc(C(=O)OCC[N+](C)(CC)CC)cc1` ; cell viability = 103

Entry `CCN(CC)CCOC(=O)c1cc(Cl)c(N)cc1OC` ; cell viability = 106

Entry c1ccc2sc(N3CCN(Cc4ccc5c(c4)OCO5)CC3)nc2c1 [2-[1-(4-piperonyl)piperazinyl]benzothiazole] ; cell viability = 92
